Recorded koff values for a group of binders are listed next.
# subject of test: T1, high affinity SIRP-α D1 variant CV1-3
# T1 chain: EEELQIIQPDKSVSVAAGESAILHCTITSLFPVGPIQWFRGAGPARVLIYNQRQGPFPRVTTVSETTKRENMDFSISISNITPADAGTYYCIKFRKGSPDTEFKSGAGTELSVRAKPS
# assay remarks: SPR, Langmuir fit
Hi! Could you send only the number? It should be in s⁻¹, unit omitted.

Use the examples below as a reference point.
INSERT INTO measurements (binder, units_symbol, reported) VALUES
  ('S198 (scFv, V domains shown) VH: DVQLVESGGGVVRPGESLRLSCAASGFSFSSHAMNWVRQAPGEGLEWVSRINSGGGGTDYAESVKGRFTISRDNSENTLYLQMNSLRAEDTAVYYCAKQYDWNGFFDYWGLGALVTVSS VL: ETVLTQSPATLSVSPGERATLSCRASQTVGSKLAWHQQKPGQAPRLLIYDATNRATGIPDRFSGSGSGTDFTLTISSLQTEDSAVYYCQQYYYWPPYRFGGGTKVEIK', 's⁻¹', 0.000787),
  ('S65 (scFv, V domains shown, also called clone 65) VH: DVQLVESGGGVVRPGESLRLSCAASGFTFSSYAMSWVRQAPGKGLEWLAGISAGGSDTYYIDSVKGRFTISRDNSKNSLYLQMNSLTAEDTAVYYCARETWNHLFDYWGLGTLVTVSS VL: ALTQPASVSANPGETVKITCSGGDYYSTYYGWYQQKSPGSAPVTVIHSDDKRPSDIPSRFSGSASGSAATLTITGVRVEDEAVYFCGAYDGRTYINTFGAGTTLTVL', 's⁻¹', 0.000147),
  ('S60 (scFv, V domains shown, also called clone 60) VH: DVQLVDSGGGVVRPGESLRLSCAASGFTFSSYAMSWVRQAPGKGLEWLAGISAGGSDTYYIDSVKGRFTISRDNSKNSLYLQMNSLTAEDTAVYYCARETWNHLFDYWGLGTLVTVSS VL: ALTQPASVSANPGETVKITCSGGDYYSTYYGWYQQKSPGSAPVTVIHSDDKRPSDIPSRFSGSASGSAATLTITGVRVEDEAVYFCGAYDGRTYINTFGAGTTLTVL', 's⁻¹', 0.000145),
  ('S70 (scFv, V domains shown, also called clone 70) VH: DVQLVESGGGVVRPGESLRLSCAASGFTFSSYAMSWVRQAPGKGLEWLAGISAGGSDAYYIDSVKGRFTISRDNSKNSLYLQMNSLTAEDTAVYYCARETWNHLFDYWGLGTLVTVSS VL: ALTQPASVSANPGETVKITCSGGDWYSTYYGWYQQKSPGSAPVTVIHSDDKRPSDIPSRFSGSASGSAATLTITGVRVEDEAVYYCAGYDGRTYINTFGAGTTLTVL', 's⁻¹', 0.00026);

# ---- query binder ----
Q: Give the measured koff of S162 (scFv, V domains shown) VH: DVQLVESGGGLVRPGESLRLSCAASGFTFTNYAVTWVRQAPGEGLEWVSLISVTGTTYYADSVKGRFTISRDNSKSTLYLQMNSLRAEDTAVYYCAKVTWKNVFDYWGLGTLVTVSS VL: EIVLTQSPGTLSVSPGERATFSCRASQTVGSKLAWYQQKPGQAPRLLIYDANTRATGIPARFSGSGSGTEFTLTISSLQSEDFAVYYCQQHTDWPPYTFGGGTKVEIK .
Result: 0.00152
